Data origin: patent US20070128217A1

Overview of reported Binding of serum 6 to looped/cyclic peptides of protein N of SARS-CoV Urbani across a group of sequences:
# Test system: antibodies in sera from SARS patients (sera 1a, 1b, 2, 6, 37, 62, London, SARS-yellow, SARS-green)
# Type: binding, human
# Parameters: unit not given here
Respond using a number only.

Would you please look over these solved cases?
construct.sequence | observed
DSTDNNQNGGRNGAR | 0.3
YKTFPPTEPKKDKKK | 0.0
SRGNSRNSTPGSSRG | 0.2
KDKKKKTDEAQPLPQ | 0.2
RSRGNSRNSTPGSSR | 0.2

QUERY: Any idea what Binding of serum 6 to looped/cyclic peptides of protein N of SARS-CoV Urbani was measured for PRGQGVPINTNSGPD ?
RESULT: 0.1

QUERY: Any idea what Binding of serum 6 to looped/cyclic peptides of protein N of SARS-CoV Urbani was measured for NTASWFTALTQHGKE ?
RESULT: 0.1
